Biological target: Acetylcholinesterase (Homo sapiens, UniProt P22303)
Sequence (P22303 whole entry): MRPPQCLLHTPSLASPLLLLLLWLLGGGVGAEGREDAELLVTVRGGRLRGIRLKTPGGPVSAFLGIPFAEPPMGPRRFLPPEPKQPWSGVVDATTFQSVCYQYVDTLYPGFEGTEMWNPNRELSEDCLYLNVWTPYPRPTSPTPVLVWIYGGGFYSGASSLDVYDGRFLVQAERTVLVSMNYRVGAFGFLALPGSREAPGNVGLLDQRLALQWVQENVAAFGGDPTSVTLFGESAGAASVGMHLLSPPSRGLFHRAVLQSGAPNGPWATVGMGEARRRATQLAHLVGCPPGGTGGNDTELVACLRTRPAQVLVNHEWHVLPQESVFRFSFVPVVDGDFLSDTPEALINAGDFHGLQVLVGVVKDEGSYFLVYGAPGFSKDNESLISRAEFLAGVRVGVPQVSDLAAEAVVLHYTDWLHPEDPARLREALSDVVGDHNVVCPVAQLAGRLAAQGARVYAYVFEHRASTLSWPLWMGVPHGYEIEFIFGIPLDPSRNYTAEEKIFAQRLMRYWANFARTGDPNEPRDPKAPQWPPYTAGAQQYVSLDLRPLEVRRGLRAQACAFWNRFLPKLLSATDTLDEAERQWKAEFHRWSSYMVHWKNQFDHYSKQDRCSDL
Test: Inhibition of recombinant human AChE using ATC as substrate by DTNB-reagent based Ellman's method
observable: pIC50
// pIC50: -log10(molar conc.)

What does the record list as pIC50 for COCCn1cnc2cc(NC(=O)c3ccccc3)cc(C(=O)NCc3cc(F)cc(F)c3)c21 ? 6.92

---

Assay: Binding affinity to 5'Dabcyl/3'-fluorescein-labelled pre-miRNA-15b (unknown origin) assessed as inhibition of recombinant human dicer-mediated pre-miRNA processing preincubated for 30 mins followed by dicer addition and measured after 5 hrs by FRET assay
observable: IC50 (nM)
Kindly answer with a numeric value in nM, unit omitted.

What does the record list as IC50 for COCCn1cnc2cc(NC(=O)c3ccccc3)cc(C(=O)NCc3cc(F)cc(F)c3)c21 ? 370

---

Experiment: Binding affinity to 3'-fluorescein-labelled pre-miRNA-15b (unknown origin) measured after 30 mins by FRET assay
observable: pKd
// pKd: -log10(molar conc.)

What does the record list as pKd for COCCn1cnc2cc(NC(=O)c3ccccc3)cc(C(=O)NCc3cc(F)cc(F)c3)c21 ? 6.09

---

Test: Apparent permeability across apical to basolateral side in human Caco2 cells after 120 mins by LC-MS/MS analysis
Type: ADME, cell-based
Conditions: Caco-2
observable: Papp A→B at 2 h (×10⁻⁶ cm/s)
Kindly answer with a numeric value in ×10⁻⁶ cm/s, unit omitted.

What does the record list as Papp A→B at 2 h for COCCn1cnc2cc(NC(=O)c3ccccc3)cc(C(=O)NCc3cc(F)cc(F)c3)c21 ? 16.7

---

Experiment: Apparent permeability across basolateral to apical side in human Caco2 cells after 120 mins by LC-MS/MS analysis
Type: ADME, cell-based
Conditions: Caco-2
observable: Papp B→A at 2 h (×10⁻⁶ cm/s)
Kindly answer with a numeric value in ×10⁻⁶ cm/s, unit omitted.

What does the record list as Papp B→A at 2 h for COCCn1cnc2cc(NC(=O)c3ccccc3)cc(C(=O)NCc3cc(F)cc(F)c3)c21 ? 36.5

---

Experiment: Half life in Sprague-Dawley rat liver microsomes at 100 uM measured at 20 mins interval by LC-MS/MS analysis
Type: ADME, Microsome
observable: half-life at 100 µM

What does the record list as half-life at 100 µM for COCCn1cnc2cc(NC(=O)c3ccccc3)cc(C(=O)NCc3cc(F)cc(F)c3)c21 ? > 5 h

---

Test: Permeability of the compound in PBS/EtOH solution measured after 16 hrs by PAMPA
Assay type: ADME
Settings: read-out: permeability
observable: Papp at 16 h (×10⁻⁶ cm/s)
Kindly answer with a numeric value in ×10⁻⁶ cm/s, unit omitted.

What does the record list as Papp at 16 h for COCCn1cnc2cc(NC(=O)c3ccccc3)cc(C(=O)NCc3cc(F)cc(F)c3)c21 ? 30.8

---

Experiment: Solubility of the compound in pH 7.4 PBS buffer at 100 uM measured after 24 hrs by LC-MS/MS analysis
Type: physicochemical
observable: solubility at 24 h, 100 µM (µM)
Kindly answer with a numeric value in µM, unit omitted.

What does the record list as solubility at 24 h, 100 µM for COCCn1cnc2cc(NC(=O)c3ccccc3)cc(C(=O)NCc3cc(F)cc(F)c3)c21 ? 34

---

Assay: Partition coefficient, log P of the compound in pH 7.4 1-octanol/PBS buffer at 38 mg measured after 1 hr by LC-MS/MS analysis
Type: physicochemical
observable: logD at 1 h
Give the value as a plain number.

What does the record list as logD at 1 h for COCCn1cnc2cc(NC(=O)c3ccccc3)cc(C(=O)NCc3cc(F)cc(F)c3)c21 ? 2.34
